target: 5-hydroxytryptamine receptor 1E (Homo sapiens) (UniProt P28566); assay: 5-HT1E receptor antagonists, primary screen, cell-based, HTS (AID 571); conditions: CHO 5-HT1E Ga15 NFAT-bla reporter, FRET, antagonist; at 6 µM; active compounds read high;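 note: signal is the 460 over 535 nm emission ratio of beta-lactamase substrate; 0% = agonist plus DMSO wells and 100% = wells without agonist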
Sequence (P28566 whole entry, looked up): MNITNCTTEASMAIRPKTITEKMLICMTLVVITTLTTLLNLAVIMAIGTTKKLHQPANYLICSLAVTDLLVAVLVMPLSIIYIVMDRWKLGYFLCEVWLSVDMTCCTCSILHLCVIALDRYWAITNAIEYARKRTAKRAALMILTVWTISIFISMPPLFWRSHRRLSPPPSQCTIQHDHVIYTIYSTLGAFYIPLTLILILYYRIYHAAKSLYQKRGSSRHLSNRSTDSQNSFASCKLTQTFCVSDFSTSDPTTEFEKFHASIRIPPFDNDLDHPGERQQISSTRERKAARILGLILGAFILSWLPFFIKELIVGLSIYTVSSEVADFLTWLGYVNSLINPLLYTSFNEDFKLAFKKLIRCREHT
Hit rate of the full screen: of about 65,000 compounds, about 640 (0.98%) were called active. Only a selection was taken, and actives are over-represented in it overall.
ENDPOINT NAME: inhibition (%)
Answers are plain numbers, in %.

Some molecules with known inhibition results, for comparison:
CCOc1ccccc1C1CC(c2ccc(Cl)cc2)Nc2nc(N)nn21 (stereo unspecified) ... 4.62
CC(C)(C)C(=O)CCN1C(=O)C2(OCCO2)c2ccccc21 ... -0.27
C[C@H](NC(=O)OC(C)(C)C)c1nnc(SCC(N)=O)o1 ... -6.77
C/C(CC(O)(/C=N/O)c1ccccc1)=N\O (stereo unspecified) ... 1.85
O=C(CNC(=O)c1ccc(Cl)cc1Cl)NCC(=O)Nc1ccccc1N1CCOCC1 ... 5.85
CCOC(=O)c1ccc(-c2ccc(C(=O)Nc3cccnc3)o2)cc1 ... 10.9

Respectfully, I request inhibition for each entry included below.
1. CCN1CCN(C(=O)c2ccccc2N(C)S(=O)(=O)c2ccc(C)cc2)CC1
2. CCOc1ccc(C(=O)Nc2ccncc2)cc1
3. Cc1cc(C)n2nc(C(=O)Oc3ccc4c(c3)OCO4)nc2n1
4. N#Cc1nc(-c2ccc(OCc3ccccc3)cc2)oc1NCCCN1CCOCC1
5. Nc1ccc(SCCN2C(=O)c3ccccc3C2=O)cc1

Result:
1: -11.1; 2: 5.74; 3: -5.31; 4: 0.01; 5: -1.04

---

molecular target: 5-hydroxytryptamine receptor 1E (Homo sapiens) (UniProt P28566); assay: 5-HT1E receptor antagonists, primary screen, cell-based, HTS (AID 571); conditions: CHO 5-HT1E Ga15 NFAT-bla reporter, FRET, antagonist; at 6 µM; active compounds read high;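 note: signal is the 460 over 535 nm emission ratio of beta-lactamase substrate; 0% = agonist plus DMSO wells and 100% = wells without agonist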
Out of some 65,000 compounds screened, about 640 (0.98%) were called active. The list comes from a sample in which actives are over-represented; it also holds close analogues and randomly drawn compounds.
Hi there, I'd appreciate the recorded inhibition for every entry that follows.
One number for each entry, in %.

Some compounds with known inhibition results, for comparison:
COC(=O)c1ccc(NC(=O)CSc2nnc(-c3ccncc3)n2C)cc1 ... -4.91
CCOc1ccc(N2C(=O)CC(N(O)c3ccccc3)C2=O)cc1 (configuration not stated) ... -13.5
CCC(C)(C)n1nnnc1C(c1cccs1)N1CCN(c2nc3ccccc3s2)CC1 (configuration not stated) ... 3.71
O=C(c1ccco1)N1CCN(CC(=O)N(C2CCCCC2)C2CCS(=O)(=O)C2)CC1 (configuration not stated) ... 16.6
COc1ccc(N=Cc2c(O)[nH]c3ccccc23)cc1OC ... -3.2
Cc1cccc(NC(=O)CSc2nnc(NC(=O)CN3CCOCC3)s2)c1 ... -3.22
Nc1nonc1-c1nc2ccccc2n1CCC(=O)O ... 7.28
CCCCC(=O)Nc1ccc2c(c1)C(=O)NC2=O ... 44
CCN(CC(=O)NCc1cccs1)c1nnnn1-c1ccccc1 ... 28.8
Nc1nonc1-c1nc2ccccc2n1Cc1ccc(F)cc1 ... 8.52

Respectfully, I request inhibition for each entry included below.
1. COCC(C)n1c(SCc2ccc(C(=O)OC)o2)nc2ccccc2c1=O (configuration not stated)
2. CCC(=O)N(Cc1cc2cc(OC)ccc2[nH]c1=O)c1ccccc1C
3. Nc1ccc(-c2nnc(-c3ccc(-c4ccccc4)cc3)o2)cc1

Result:
1: 24.9; 2: 15.6; 3: -0.45

Respectfully, I request inhibition for each entry included below.
1. COC(=O)c1ccc(CSc2nc3ccccc3c(=O)n2-c2cccc(OC)c2)o1
2. O=C(NCc1ccco1)c1cccn2c(=O)c3cc(Br)ccc3nc12
3. CC1CC(C)CN(CC(=O)Nc2ccc(S(N)(=O)=O)cc2)C1 (configuration not stated)
4. C=CCn1c(COc2ccccc2C)nnc1SCC(=O)O
5. COc1cc(N=Cc2c(O)[nH]c3ccccc23)cc(OC)c1OC
6. COC(=O)c1ccc(CSc2ccccc2C)o1

Result:
1. 39.7
2. 11.4
3. -5.33
4. 10.3
5. 4.31
6. 1.46

Respectfully, I request inhibition for each entry included below.
1. COC(=O)c1ccccc1NC(=O)Cn1nc(C(F)(F)F)c2c1CCC2
2. Cc1ccccc1-n1c(SCC(=O)NCc2cccs2)nnc1-c1ccncc1
3. CC[C@]1(O)CC2CN(CCc3c([nH]c4ccccc34)[C@@](C(=O)OC)(c3cc4c(cc3OC)N(C=O)[C@H]3[C@@](O)(C(=O)OC)[C@H](OC(C)=O)[C@]5(CC)C=CCN6CC[C@]43[C@@H]65)C2)C1 (some centres not stated)

Result:
[-3.25, -6.81, 71.9]

---

biological target: 5-hydroxytryptamine receptor 1E (Homo sapiens) (UniProt P28566); experiment: 5-HT1E receptor antagonists, primary screen, cell-based, HTS (AID 571); settings: CHO 5-HT1E Ga15 NFAT-bla reporter, FRET, antagonist; at 6 µM; active compounds read high;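 note: signal is the 460 over 535 nm emission ratio of beta-lactamase substrate; 0% = agonist plus DMSO wells and 100% = wells without agonist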
The whole screen tested about 65,000 compounds, of which about 640 (0.98%) were called active. Only a selection was taken, and actives are over-represented in it overall.
ENDPOINT NAME: inhibition (%)
Give bare numbers, in %.

c1cnn(-c2cc(N3CCOCC3)ncn2)c1 ... -8.12
O=C(Nc1ccccc1N1CCCCC1)c1cccc(F)c1 ... -0.39
COc1ccc(-c2c3c(=O)n(C)c(=O)n(C)c3cn2-c2cccc(OC)c2)cc1 ... 6.73
COc1ccc(-c2cc(C(F)(F)F)nc(S(C)(=O)=O)n2)cc1OC ... 70.8
COc1cc2c(cc1OC)C(c1ccc(C)o1)CC(=O)N2 (stereo not given) ... 11.3

Respectfully, I request inhibition for each entry included below.
1. CC(C)c1nc(N2CCOCC2)c(C#N)c2c1COC(C)(C)C2
2. COc1ccccc1-n1nnnc1S(=O)(=O)Cc1ccc(Cl)cc1
3. Fc1ccc2[nH]c3c(N4CCSCC4)ncnc3c2c1

Result:
10.4
29.9
54.9

Respectfully, I request inhibition for each entry included below.
1. CC1(C)Cc2c(C#N)c(SCc3nc4ccccc4[nH]3)nc(N3CCOCC3)c2CO1
2. CC(=O)NCCc1ccc(S(=O)(=O)N(C)C2CCS(=O)(=O)C2)cc1 (stereo not given)
3. CC1(C)CC(=O)C=C(NCCCNC2CCCCC2)C1
4. Cc1cccc(-n2c(O)c(C=Nc3ccccc3N)c(=O)[nH]c2=O)c1
5. CCCOc1ccccc1C1CC(=O)Nc2cc3c(cc21)OCO3 (stereo not given)

Result:
[28.9, -8.57, 7.98, -5.35, 52.8]

Respectfully, I request inhibition for each entry included below.
1. COCCOC(=O)C1=C(C)NC(=O)CC1c1cc2c(cc1Br)OCO2 (stereo not given)
2. NC(=O)C1(N2CCCCC2)CCN(C(=O)c2ccc(C#Cc3ccccc3)o2)CC1

Result:
1. -1.17
2. 2.52

Respectfully, I request inhibition for each entry included below.
1. C/C(=C\C(=O)c1cccnc1)Nc1ccc(C)c(C)c1
2. Cc1ccccc1NC(=O)c1cc(S(=O)(=O)N2CCOCC2)cs1
3. COc1cc(OC)c(C(=O)Nc2ccc(N(C)C)cc2)cc1OC
4. Cc1cc(Nc2cccc(F)c2)n2ncnc2n1

Result:
[-0.61, -6.32, -7.5, -1.52]

Respectfully, I request inhibition for each entry included below.
1. COc1ccc(CCNS(=O)(=O)c2ccc(C(=O)NCc3ccco3)cc2)cc1OC
2. O=C(CN1CCN(S(=O)(=O)c2ccc(F)cc2)CC1)Nc1ccccc1F
3. Cc1ccc(NC(=O)N2CCC(C(=O)NCc3ccc(F)cc3)CC2)cc1
4. COc1cccc(NC(=O)Cn2cnc3sc(C)c(S(=O)(=O)N4CCN(C)CC4)c3c2=O)c1
5. COc1cccc(C(=O)Nc2c3c(nn2-c2cccc(C)c2C)CS(=O)(=O)C3)c1OC
6. COc1cc(-c2nnc(Cn3cc(C(F)(F)F)ccc3=O)o2)cc(OC)c1OC

Result:
1: -13.4; 2: 2.85; 3: -1.42; 4: -6.2; 5: 29.9; 6: 29

Respectfully, I request inhibition for each entry included below.
1. CCOC(=O)N1CCC(NC(=O)CN2C(=O)COc3ccc(C(C)(C)C)cc32)CC1
2. CCCCOc1ccc(C(C)(O)CCN2CCOCC2)cc1 (stereo not given)
3. CN(C)c1nc(N)nc(CSc2nnnn2-c2cccc3ccccc23)n1

Result:
1: -7.21; 2: 2.45; 3: 30.2

Respectfully, I request inhibition for each entry included below.
1. Fc1ccc2nc(N3CCCCC3)sc2c1
2. COCCNC(=O)C(C#N)c1nc2ccccc2nc1N1CCN(Cc2ccc3c(c2)OCO3)CC1 (stereo not given)
3. CCOC(=O)c1cc(-c2nnc(-c3cc(OC)c(OC)c(OC)c3)o2)c(C)nc1C

Result:
1: 1.55; 2: 2.9; 3: -9.6

Respectfully, I request inhibition for each entry included below.
1. CCOC(=O)N1CCN(S(=O)(=O)c2ccc(C(=O)Nc3ccc(F)cc3F)cc2)CC1
2. COCCNC(=O)C(c1ccc(C)o1)N(Cc1cccs1)C(=O)c1snc(C(N)=O)c1N (stereo not given)
3. COc1ccc(CSc2nc(N3CCOCC3)c3c(c2C#N)CC(C)(C)OC3)cc1

Result:
1: 38.3; 2: -3.57; 3: -10.9

Numbers sourced from PubChem BioAssay AID571.
